molecular target: T1, human claudin 18.2 (hCLDN18.2) (human); assay: flow cytometry on HEK293-hCLDN18.2 cells; 5 ug/mL; antibody heat treated at 70 C for 5 min
T1 construct: also called CLDN18 splice variant 2; HEK293-hCLDN18.2
quantity_kind: FACS binding signal (read-out unnamed)

[[record]]
binder = "h5M9V10 humanized antibody (h5M9 VHv4 / h5M9 VLv1) (antibody, human IgG1, kappa, V domains shown, Human IgG1 (G1m17) / kappa) VH: QVQLKESGPGLVAPSETLSITCTVSGFSLTTYGVQWVRQPPGKGLEWLGAIWAGGNTNYNSALMSRLTISKDNSKSQVSLKMSSLTAADTAIYYCAKGGYGNAMDYWGQGTLVTVSS VL: DIVMTQSPSSLAVSLGERATMNCKSSQSLLNSGNQKNYLTWYQQKPGQPPKLLIYWASTRESGVPDRFSGSGSGTDFTLTISSVQAEDLAVYYCQNDYFFPFTFGQGTKLEIKR"
quantity_kind = "FACS binding signal (read-out unnamed)"
measured_result = 607


**Q:** What does the record list as FACS binding signal (read-out unnamed) for 175D10 human-mouse chimeric positive control antibody (antibody, V domains shown, Self-made, expressed in CHOS cells, Protein A purified; also called Benchmark) VH: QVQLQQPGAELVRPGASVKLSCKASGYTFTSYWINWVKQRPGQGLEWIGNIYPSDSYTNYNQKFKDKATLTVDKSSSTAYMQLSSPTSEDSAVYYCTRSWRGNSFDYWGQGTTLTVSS VL: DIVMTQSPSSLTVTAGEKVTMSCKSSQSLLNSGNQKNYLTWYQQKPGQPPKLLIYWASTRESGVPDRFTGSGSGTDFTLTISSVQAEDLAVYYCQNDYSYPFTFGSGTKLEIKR ?
**A:** 600

Data origin, for the record: patent US20230096452A1
